measured-target: hChoKβ FL (Homo sapiens)
Construct: hChoKβ full length (FL), corresponding to aminoacids 2-395; GST (N, cleaved yes); Prescission Protease recognition site (N, cleaved yes)
Sequence (Q9Y259 2-395): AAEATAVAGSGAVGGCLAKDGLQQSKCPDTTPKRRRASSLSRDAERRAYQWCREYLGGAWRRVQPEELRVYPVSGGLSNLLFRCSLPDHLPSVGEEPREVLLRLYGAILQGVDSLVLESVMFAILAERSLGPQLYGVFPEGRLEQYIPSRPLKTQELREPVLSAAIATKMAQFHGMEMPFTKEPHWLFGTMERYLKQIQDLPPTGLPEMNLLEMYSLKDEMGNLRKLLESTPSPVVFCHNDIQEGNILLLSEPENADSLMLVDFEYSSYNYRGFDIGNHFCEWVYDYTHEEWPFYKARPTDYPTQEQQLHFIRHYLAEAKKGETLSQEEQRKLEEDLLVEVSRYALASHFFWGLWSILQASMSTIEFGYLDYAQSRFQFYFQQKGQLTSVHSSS
protocol-description: Biochemical kinase inhibition assay (Kinase-Glo Luminescent Kinase Assay) on hChoKβ FL
measurement-setup: ATP 5 μM, choline 20 μM, 60 minutes at rt; read-out: IC50 ChoKβ
endpoint-name: IC50

Use these answered entries as a reference point.
compound_structure_string=CC(C)(C)OC(=O)N1[C@H]2CC[C@@H]1c1sc(NC(=O)[C@H]3CC[C@@H](n4cnc5c(N)nc(Cl)nc54)CC3)nc1C2 observed="5.63 µM"
compound_structure_string=Cc1cccc(NC(=O)[C@H]2CC[C@@H](n3cnc4c(N)nc(Cl)nc43)CC2)c1 observed="> 10 µM"
compound_structure_string=CC(C)(C)OC(=O)N1CCc2nc(NC(=O)[C@H]3CC[C@@H](n4cnc5c(N)nc(Cl)nc54)CC3)sc2C1 observed="5.55 µM"
compound_structure_string=NC(=O)Cc1ccc2nc(NC(=O)[C@H]3CC[C@@H](n4cnc5c(N)nc(Cl)nc54)CC3)sc2c1 observed="3.81 µM"
compound_structure_string=Nc1nc(Cl)nc2c1ncn2[C@H]1CC[C@@H](C(N)=O)CC1 observed="> 10 µM"

May I ask what IC50 has been recorded for "C#Cc1nc(N)c2ncn([C@H]3CC[C@@H](C(=O)Nc4nc5c(s4)CN(C)CC5)CC3)c2n1" ? > 10 µM

Also need "COc1cccc(NC(=O)[C@H]2CC[C@@H](n3cnc4c(N)nc(-c5ccc(C(=O)Nc6ccc(CN7CCC(N(C)C)CC7)cc6)cc5)nc43)CC2)c1" , thanks. 4.57 µM

Hey, just so you know, these numbers are from patent US10683292B2.
